# tested-system: B1R receptor of the rat (CHO K1 cells stably transfected with the B1R gene of the rat) (Rattus norvegicus)
# Construct: expressed in transfected cells; host or cells: CHO K1 cells (Chinese hamster ovary), stably transfected
# Sequence (P97583 1-337): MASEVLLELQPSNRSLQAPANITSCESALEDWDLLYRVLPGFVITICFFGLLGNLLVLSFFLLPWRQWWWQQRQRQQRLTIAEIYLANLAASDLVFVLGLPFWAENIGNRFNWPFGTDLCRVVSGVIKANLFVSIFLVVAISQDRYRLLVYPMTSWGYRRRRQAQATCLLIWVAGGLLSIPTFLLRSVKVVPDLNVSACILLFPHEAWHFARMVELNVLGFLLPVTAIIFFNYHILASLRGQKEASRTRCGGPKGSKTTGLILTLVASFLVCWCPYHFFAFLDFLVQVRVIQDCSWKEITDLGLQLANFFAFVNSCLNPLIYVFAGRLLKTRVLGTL
# test-protocol: Functional study on the bradykinin receptor 1 (B1R), Ca2+ fluorescence (Fluo-4) FLIPR/Novostar assay, rB1R cells
# Type: cell-based
# conditions: CHO-K1, 10 μM, read-out: % inhibition (rat B1R) at 10 μM
# Description: The agonistic or antagonistic action of substances can be quantified on the bradykinin receptor 1 (B1R) of the species human and rat using ectopically expressing cell lines (CHO K1 cells) and with the aid of a Ca^2+-sensitive dye (Fluo-4) using a fluorescent imaging plate reader (FLIPR). […] The agonistic or antagonistic action of substances can be determined on the bradykinin receptor 1 (B1R) of the species human and rat using the following assay. […]
inhibition at 10 µM values, listed per item
outcome-measure: inhibition at 10 µM (%)

• Cc1cc(N2CCC(N(C)C(=O)c3ccc4c(c3)[C@H](NC(=O)c3ccc(F)cc3Cl)CC4)CC2)nc(C)n1 [Example H-165] = 105
• CCN(C(=O)c1ccccc1Cl)[C@@H]1CCc2ccc(C(=O)N(C)C3CCN(c4cc(C)nc(C)n4)CC3)cc21 [Example H-145] = 106
• Cc1cc(C(=O)N[C@@H]2CCc3ccc(C(=O)N(C)C4CCN(c5ccncc5)CC4)cc32)no1 [Example H-62] = 99
• CN(C(=O)c1ccc2c(c1)[C@H](NC(=O)C1(c3ccccc3F)CC1)CC2)C1CCN(c2ccncc2)CC1 [Example H-46] = 103

Just for reference, patent US8680159B2 is where these values come from.
